The reported measurements were obtained from BigSolDB 2.1.

assay setup: in DMSO, 303.15 K
assay readout: solubility (mole fraction)
The answer should be a number; do not append a unit.

Input: Reported solubility (mole fraction) for [NH3+]O.[NH3+]O.[O-]n1nnnc1-c1nnnn1[O-] : what is it?
Output: 0.00149

----------
assay setup: in DMF, 298.15 K
assay readout: solubility (mole fraction)
The answer should be a number; do not append a unit.

Input: Reported solubility (mole fraction) for [NH3+]O.[NH3+]O.[O-]n1nnnc1-c1nnnn1[O-] : what is it?
Output: 7.18e-05

----------
assay setup: in formic acid, 308.15 K
assay readout: solubility (mole fraction)
The answer should be a number; do not append a unit.

Input: Reported solubility (mole fraction) for [NH3+]O.[NH3+]O.[O-]n1nnnc1-c1nnnn1[O-] : what is it?
Output: 0.00028
